Recorded pIC50 for the following compounds
- Test system: MCF-10A non-tumorigenic human breast epithelial cell line
- ASSAY: MTT anti-proliferative assay on MCF-10A
- Assay type: cell-based
- TEST PARAMETERS: read-out: IC50, MCF-10A; MTT assay, 72 h drug exposure; SD in parenthesis
Please note pIC50 is a logarithmic value: minus log10 of concentration in mol/L. Answer with that number alone.

These solved cases illustrate the format of a correct answer.
O=C(Oc1ccc(-n2cccc2)cc1)[c-]1cccc1.O=C(Oc1ccc(-n2cccc2)cc1)[c-]1cccc1.[Fe+2]
3.53
C[C@]12CC[C@@H]3c4ccc(OC(=O)[c-]5cccc5)cc4CC[C@H]3[C@@H]1CC[C@@H]2O.[Fe+2].c1cc[cH-]c1
3.92

Now examine the next entry.
Give recorded pIC50 with MCF-10A non-tumorigenic human breast epithelial cell line for the following compound: O=C(O)Cc1ccc[cH-]1.[Fe+2].c1cc[cH-]c1
4.07
